ASSAYED_TARGET: T1, human VpreB (on the pre-BCR-expressing human pre-B cell line NALM-6) (human, UniProt P12018 20-145)
T1 construct: On NALM-6 cells VpreB stands in the pre-BCR together with lambda-5 and the mu heavy chain; also called VPREB1; VpreB subunit of the SLC of human pre-BCR
T1 sequence: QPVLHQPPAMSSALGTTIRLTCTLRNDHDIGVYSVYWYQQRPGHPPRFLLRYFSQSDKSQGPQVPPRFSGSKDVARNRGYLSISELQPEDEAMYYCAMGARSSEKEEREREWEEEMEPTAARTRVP
TEST_NAME: flow cytometry, saturation binding of recombinant chimeric mAb to NALM-6 cells
Items are presented alongside their recorded EC50.
Return type: number; implicit unit nM.

Consider the reported EC50 for these binders:
IN: Give its EC50 value. Item: VpreB antibody 5-14A8 (recombinant mouse-human chimeric IgG1/kappa) (antibody, V domains shown, also called mAb 5-14A8) VH: EVQLEESGPSLVKPSQTLSLTCSVTGDSITSDYWTWIRKFPGNILEYMGYISSSGRIYYNPSLKSRISITRDTSKNQYYLQLSSVTTEDTATYYCARERYYYGSLDYWGQGTTLTVSS VL: DVLMTQTPLSLPVSLGDQASISCRSSQGLVHSNGNTYLHWYLQKPGQSPKLLIYKVSNRFSGVPDRFSGSGSGTDFTLKISRVEAEDLGVYFCSQTTHVPPTFGGGTKLEIKR
OUT: 0.227

IN: Entry VpreB antibody 5-14H5 (recombinant mouse-human chimeric IgG1/kappa) (antibody, V domains shown, also called mAb 5-14H5) VH: QVQLQQPGAELVKPGASVKLSCKASGYTFTSNWMNWVKQRPGQGLEWIGEINPSNGRINYNEKFKSKATLTVDKSSSTAYMQLSSLTSEDSAVYYCARSGLLDYWGQGTTLTVSS VL: DVLMTQTPLSLPVSLGDQASISCRSSQSLVHSNGNTYLHWYLQKPGQSPKLLIYKVSNRFSGVPDRFSGSGSGTDFTLKISRVEAEDLGVYFCSQSTYLPLTFGAGTRLELKR has what EC50?
OUT: 0.115

IN: Would you kindly share the measured EC50 for VpreB antibody 5-11D1 (recombinant mouse-human chimeric IgG1/kappa) (antibody, V domains shown, also called mAb 5-11D1) VH: EVQLEESGPSLVKPSQTLSLTCSVTGDSITSDYWTWIRKFPGNKLEYMGYISYSGRTYYNPSLKSRISITRDTSRNQYYLQLSSVTTEDTATYYCARERYYYGSLDYWGQGTTLTVSS VL: DVLMTQTPLSLPVSLGDQASISCRSSQSLVHSNGNTYLHWYLQKPGQSPKLLIYKVSNRFSGVPDRFSGSGSGTDFTLKISRVEAEDLGVYFCSQTTHVPPTFGGGTKLEIKR ?
OUT: 0.143

# ---- query binder ----
IN: Report EC50 for VpreB antibody 5-4A9 (recombinant mouse-human chimeric IgG1/kappa) (antibody, V domains shown, also called mAb 5-4A9) VH: EVQLQQSGAELVKPGASVQLSCKASGYTFTSYWMQWVKQRPGQGLEWIGEINPSNGRNNYNEKFKRKATLTVDTSSSTAYMQLSSLTSEDSAVYYCARSGLLDYWGQGTTLTVSS VL: DVLMTQTPLSLPVSLGDQASISCRSSQSLVHSNGNTYLHWYLQKPGQSPKLLIYKVSNRFSGVPDRFSGSGSGTDFTLTISRVEAEDLGVYFCSQSTYVPLTFGAGTKLELKR please.
OUT: 0.396
